Several publications report IC50 on Acrosin (Homo sapiens, UniProt P10323); those values are gathered here.

These recorded examples may help you get a feel for the data.
- COC(=O)Nc1nc2ccc(S(=O)(=O)NCc3ccc(Cl)cc3)cc2[nH]1: 7520 µM
- N#Cc1cccc(OC(=O)c2ccc(NC(=N)N)cc2)c1: 0.0072 µM
- CCCCCN1CCN(CC(=O)Nc2nc3ccc(Br)cc3s2)CC1: 5080 µM
- COC(=O)Nc1nc2ccc(S(=O)(=O)NCc3cccc(OC)c3)cc2[nH]1: 7500 µM
- COC(=O)Nc1nc2ccc(S(=O)(=O)Nc3cc(C)ccc3C)cc2[nH]1: 8860 µM
- COC(=O)Nc1nc2ccc(S(=O)(=O)NCc3ccc(Cl)cc3Cl)cc2[nH]1: 1270 µM
- N=C(N)Nc1ccc(C(=O)Oc2ccc(C(F)(F)F)cc2)cc1: 0.033 µM
- Cc1ccc(NC(=O)c2cc(-c3ccc(NC(=N)N)cc3)on2)cc1: 10.1 µM
- CCOC(=O)c1cc(-c2ccc(NC(=O)c3ccc(F)cc3)cc2)on1: 140 µM
- Cc1ccccc1NC(=O)c1cc(-c2ccc(NC(=N)N)cc2)[nH]n1: 10.9 µM

Noted IC50 for `CCN(CC)c1ccc(NC(=O)c2cc(-c3ccc(NC(=N)N)cc3)[nH]n2)cc1` , tested on Acrosin (Homo sapiens, UniProt P10323): 25.9 µM

Tested system Acrosin (Homo sapiens, UniProt P10323); IC50 recorded for `Cc1cccc(NC(=O)c2cc(-c3ccc(NC(=N)N)cc3)on2)c1` was 9.4 µM

Kindly note: Acrosin (Homo sapiens, UniProt P10323), `Cc1ccnc(NC(=O)c2cc(-c3ccc(NC(=N)N)cc3)on2)c1` , IC50 value reported: 21.4 µM

Field IC50 (system: Acrosin (Homo sapiens, UniProt P10323)) for entry `COc1cccc(OC(=O)c2ccc(NC(=N)N)cc2)c1` = 0.0176 µM

IC50 of `Cc1cc(C)cc(NC(=O)c2cc(-c3ccc(NC(=N)N)cc3)[nH]n2)c1` , assay on Acrosin (Homo sapiens, UniProt P10323), is 9.46 µM

====

A compilation of pIC50 values for Acrosin (Homo sapiens) from the published literature.
Note: pIC50 values are expressed as the negative base-10 logarithm of concentration in M.

* COc1ccccc1OC(=O)c1ccc(NC(=N)N)cc1 | 7.56

Per the reported Acrosin (Homo sapiens) data, `COC(=O)Nc1nc2ccc(S(=O)(=O)NCc3cccc(C)c3)cc2[nH]1` has pIC50 of 2.30

Measured on Acrosin (Homo sapiens), `O=C(NCCO)Nc1nc2ccc(S(=O)(=O)NCc3ccccc3)cc2[nH]1` has a documented pIC50 of 3.55

# lookup: `N=C(N)Nc1ccc(-c2cc(C(=O)Nc3cccc4ccccc34)no2)cc1` on Acrosin (Homo sapiens), pIC50 = 4.52

Result for `O=C(NCCO)Nc1nc2ccc(S(=O)(=O)NCc3cc(F)cc(F)c3)cc2[nH]1` , tested on Acrosin (Homo sapiens), pIC50: 3.47

====

Across several studies, compounds have been characterized by their IC50 on Acrosin (Homo sapiens, UniProt P10323); a selection follows.
# output: bare number, implied unit µM

Use the examples below as a reference point.
* CCOc1ccc(NC(=O)c2cc(-c3ccc(NC(=N)N)cc3)on2)cc1 | 6.4
* COc1ccc(-c2cc(C(=O)NCC(C)O)n[nH]2)cc1 (stereo not given) | 8920
* N=C(N)Nc1ccc(-c2cc(C(=O)Nc3cccc(Br)c3)n[nH]2)cc1 | 13.1
* N#Cc1ccc(NC(=O)c2cc(-c3ccc(NC(=N)N)cc3)on2)cc1 | 23.9
* N=C(N)Nc1ccc(-c2cc(C(=O)Nc3ccc(Cl)cc3)n[nH]2)cc1 | 23.9

The compound listed as `N=C(N)Nc1ccc(-c2cc(C(=O)Nc3ccc(Cl)cc3)no2)cc1` has a reported IC50 of 26.8

Quick note, IC50 for `O=Cc1cc(-c2ccc(Cl)cc2Cl)on1` landed at 39000

Reported IC50 of `CC(C)c1ccc(OC(=O)c2ccc(NC(=N)N)cc2)cc1` : 0.0066

# IC50 (compound: `COC(=O)Nc1nc2ccc(S(=O)(=O)NCc3ccccc3)cc2[nH]1` ) is 1030

Note to self: IC50 recorded for `CCCCCCNS(=O)(=O)c1ccc2nc(NC(=O)NCCO)[nH]c2c1` was 1620

Query `COC(=O)c1ccc(OC(=O)c2ccc(NC(=N)N)cc2)cc1` yields IC50 of 2.41
